Cited source for all entries: paper PMC3037356

Target: BosR (rBosR) (UniProt O51592 1-176)
Assay: EMSA; 20 mM Hepes pH 7.5, 50 mM KCl, 1 mM MgCl2, 1 mM DTT, 5% glycerol, 100 ug/ml BSA, 50 ug/ml poly[d(A-T)], 30 fmol probe in 20 ul, 37 C 30 min
Conditions: protein: recombinant; tags: none (His6-SUMO tag removed by SUMO protease); chain copies: 2; label: digoxigenin 3' end; blunt

[
  {
    "binder": "ZM223 (DR1 and DR2 mutant) (dsDNA) DNA 1: ATTTTATATCCTAGGCCGTTTAAAACCATTTTTAGGCCAAATTGGCACAGTTTTTGCATG DNA 2: CATGCAAAAACTGTGCCAATTTGGCCTAAAAATGGTTTTAAACGGCCTAGGATATAAAAT",
    "binding result": "no binding"
  },
  {
    "binder": "ZM219 (bosR upstream) (dsDNA) DNA 1: AAAAAAATATGAAAATAAATAAATAATAAGTAGTAAAATATTAATAACTGGGTATAAAAT DNA 2: ATTTTATACCCAGTTATTAATATTTTACTACTTATTATTTATTTATTTTCATATTTTTTT",
    "binding result": "binds"
  },
  {
    "binder": "ZM218 (ZM217 DR mutant) (dsDNA) DNA 1: AGTGTAAAAAGGCCAATCAATTTTTTCATTAAATATCCTTTTTATTTATTATGGTATTAA DNA 2: TTAATACCATAATAAATAAAAAGGATATTTAATGAAAAAATTGATTGGCCTTTTTACACT",
    "binding result": "no binding"
  },
  {
    "binder": "ZM166 (-24/-12 and DR mutant) (dsDNA) DNA 1: TTTAGTTTAAAACCATTTTTAGGCCAAATTTTCACAGTTTTTGAATTCCAACAGGCAAAA DNA 2: TTTTGCCTGTTGGAATTCAAAAACTGTGAAAATTTGGCCTAAAAATGGTTTTAAACTAAA",
    "binding result": "no binding"
  }
]
